Data credit: the supplement of paper PMC9170038

Catalogue of apparent KD of MS2 coat protein readings, one per entry.
- Test system: MS2 coat protein
- protocol-details: apparent KD of MS2 coat protein; designed switch direction (-1 OFF switch, 1 ON switch): -1; higher = weaker reporter binding
- measurement-setup: input ligand: none

Observe how each entry below is paired with its result.
{"polymer-sequence": "AAUAGUCGGUAGGAUAUCCACGGAUGACCGGCAGGAGAAGGGCCGACUUGAGGAUCACCCAAGUAUGGUCCAAC [Ortiqumate] (Eterna round: R97, puzzle: Exclusion 6)", "system-name": "MS2 coat protein", "apparent KD of MS2 coat protein": "13.9 nM"}
{"polymer-sequence": "GAAUAGAGAGGAUAUGCGUAGUAGGUAGUAAGAUAUAUCUGACAUGAGGAUCACCCAUGUAGAAGGCUCAGAUC [EX2 #3] (Eterna round: R97, puzzle: Exclusion 2)", "system-name": "MS2 coat protein", "apparent KD of MS2 coat protein": "35.2 nM"}
{"polymer-sequence": "UUUACAAGCUUUAGAUCCCACAUGAGGAUCACCCAUGUUGCUGCCGUGAGGUAGCUUUUAACUAAUGCUCGUCUUAU [JL TOV1 3.41] (Eterna round: R97, puzzle: Sensor, turn-off variant 1)", "system-name": "MS2 coat protein", "apparent KD of MS2 coat protein": "124 nM"}
{"polymer-sequence": "CAUGUAAGUCGUUGAUCCAACAUGAGGAUCACCCAUGUCACUUUAGCUUUUUGCUCGUCUUAUCCUCCUUUGUUCAC [JR_STOV1_v2_Sub0100] (Eterna round: R97, puzzle: Sensor, turn-off variant 1)", "system-name": "MS2 coat protein", "apparent KD of MS2 coat protein": "1060 nM"}

Okay, next one:
Data point: AAUAAGGGAGGAUAUACAUUAAAUCCUAUUUUCUUUUUGUUACAUGAGGAUCACCCAUGUAGAAGGCCCAAUAA [lam1] (Eterna round: R97, puzzle: Exclusion 2) ; apparent KD of MS2 coat protein = 23 nM
